Origin of measurements: patent US20230192860A1

- TARGET ENTITY: T1, hVISTA-ECD 6-His tag (human, UniProt Q9H7M9 33-193)
- T1 construct: also called monovalent hVISTA-ECD; human VISTA
- T1 sequence (Q9H7M9 other isoform, or with tags, fused parts or gaps limits assumed): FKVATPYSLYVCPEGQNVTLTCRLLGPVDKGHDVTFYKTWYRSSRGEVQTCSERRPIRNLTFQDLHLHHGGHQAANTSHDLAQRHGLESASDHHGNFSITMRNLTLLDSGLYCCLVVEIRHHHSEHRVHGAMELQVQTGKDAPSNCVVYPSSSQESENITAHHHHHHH
- ASSAY SUMMARY: SPR, Ab on Protein A, hVISTA analyte, pH 6.9
# koff per entry
# output: bare number, implied unit s⁻¹

| BINDER | koff / s⁻¹ |
| --- | --- |
| P1-061520 (41F11 VK_A64G) (antibody, V domains shown, also called P1-061520-21; VISTA.4.A64G) VH: QVQLVESGGGLVKPGGSLRLSCAASGFTFSDYYMSWIRQAPGKGLEWVSYISNSGSPIYYADSVKGRFTISRDNAKNSLYLQMNSLRAEDTAVYYCARDLPGWYFDLWGRGTLVTVSS VL: EIVLTQSPATLSLSPGERATLSCRASQSVSSYLAWYQQKPGQAPRLLIYDASNRATGIPARFSGSGSGTDFTLTISSLEPEDFAVYYCQQRNNWPRTFGQGTKVEIK | 0.00139 |
| P1-068744 (antibody, human IgG1, kappa, V domains shown, also called P1-068744-7) VH: QVQLVESGGGVVQPGRSLRLSCAASGFTFSEYAMHWVRQAPGKGLEWVAHIWYDGSNKYEADSVKGRFTISRDNSKNTLYLQMNSLRAEDTAVYYCARDSGFYESYYFDEWGQGTLVTVSS VL: EIVLTQSPATLSLSPGERATLSCRASQSVSSSYLAWYQQKPGQAPRLLIYDASNRATGIPARFSGSGSGTDFTLTISSLEPEDFATYYCQQYNSYPYTFGQGTKLEIKR | 0.034 |
| P1-070976 (41F11_VH_T28P_Y50W_S55E_D95H_L96E_P97E_Y100E; Vk_A64G) (antibody, V domains shown, They look like Kabat positions on the mature VH, but no numbering scheme is stated; also called P1-070976-11) VH: QVQLVESGGGLVKPGGSLRLSCAASGFPFSDYYMSWIRQAPGKGLEWVSWISNSGEPIYYADSVKGRFTISRDNAKNSLYLQMNSLRAEDTAVYYCARHEEGWEFDLWGRGTLVTVSS VL: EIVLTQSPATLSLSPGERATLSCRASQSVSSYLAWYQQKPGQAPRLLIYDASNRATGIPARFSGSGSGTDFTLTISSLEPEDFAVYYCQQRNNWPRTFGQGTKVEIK | 0.01 |

Attention now shifts to the item below.
Tell me the measured koff of P1-068748 (antibody, human IgG1, kappa, V domains shown, also called P1-068748-6) VH: QVQLVESGGGVVQPGRSLRLSCAASGFTFSHHAMHWVRQAPGKGLEWVAIIWYDGSNDDYADSVKGRFTISRDNSKNTLYLQMNSLRAEDTAVYYCARDSGFYDSYYFDYWGQGTLVTVSS VL: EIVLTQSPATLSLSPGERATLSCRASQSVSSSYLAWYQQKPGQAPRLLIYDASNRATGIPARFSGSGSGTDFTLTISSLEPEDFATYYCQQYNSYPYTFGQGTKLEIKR , please.
0.018
